target: Nociceptin receptor (Homo sapiens, UniProt P41146); test: Antagonist activity at human ORL1 receptor by [35S]GTPgammaS binding assay; assay type: functional
Sequence (P41146 whole entry): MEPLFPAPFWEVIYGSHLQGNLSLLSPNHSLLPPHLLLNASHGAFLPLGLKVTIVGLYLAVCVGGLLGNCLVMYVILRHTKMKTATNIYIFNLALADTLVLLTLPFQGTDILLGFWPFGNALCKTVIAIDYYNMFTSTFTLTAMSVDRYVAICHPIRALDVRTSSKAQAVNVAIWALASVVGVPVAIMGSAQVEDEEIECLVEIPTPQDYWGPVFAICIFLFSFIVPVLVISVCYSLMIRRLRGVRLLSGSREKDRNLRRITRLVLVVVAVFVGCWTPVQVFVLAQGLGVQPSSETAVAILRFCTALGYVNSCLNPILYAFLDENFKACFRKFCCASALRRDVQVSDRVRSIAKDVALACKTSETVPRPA
Quick reference for log10 IC50 among some compounds
Reminder: these figures are log10 of reported IC50, in nM before transformation.

Record excerpt, results attached:
- Compound: "CCC(CC)Sc1nc2cc(Cl)c(N3CCN(CCO)C(C)(C)C3)cc2[nH]1"
  Test Target: "Nociceptin receptor (Homo sapiens, UniProt P41146)"
  Reported Measurement: 1.77
- Compound: "CCC(CC)Sc1nc2cc(Cl)c(N3C[C@@H]4C[C@H]3CN4CCO)cc2[nH]1"
  Test Target: "Nociceptin receptor (Homo sapiens, UniProt P41146)"
  Reported Measurement: 1.43

Q. Respond only with log10 IC50 recorded for C[C@@H]1CN(CCO)CCN1c1cc2[nH]c(SC(C)(C)C)nc2cc1Cl
A. -0.19

Q. Respond only with log10 IC50 recorded for C[C@H]1CN(CCO)CCN1c1cc2[nH]c(SC(C)(C)C)nc2cc1Cl
A. 0.34

Q. Respond only with log10 IC50 recorded for CCC(CC)Sc1nc2cc(Cl)c(N3CCN(CCO)C(C)C3)cc2[nH]1 (racemic)
A. 1.34
